Target: Alpha-synuclein (Homo sapiens) (UniProt P37840)
Assay: Inhibition of human alpha-synuclein aggregation expressed in transgenic Caenorhabditis elegans NL5901 by measuring fluorescence intensity at 1% incubated for 48 hrs by fluorescence microscopy analysis relative to control
measurementType: inhibition (%)

{"molSmiles": "CCOC(=O)c1cnc2c(cnn2-c2cccc(C(F)(F)F)c2)c1N1CCN(c2ncccc2C#N)CC1", "inhibition, %": 27.3}
{"molSmiles": "CCOC(=O)c1cnc2c(cnn2-c2ccccc2)c1N1CCN(c2cc(C)nc3ncnn23)CC1", "inhibition, %": 31.9}
{"molSmiles": "CCOC(=O)c1cnc2c(cnn2-c2ccccc2)c1N1CCN(c2cc(C(F)(F)F)nc3ncnn23)CC1", "inhibition, %": 14.1}
{"molSmiles": "CCOC(=O)c1cnc2c(cnn2-c2ccccc2)c1N1CCN(c2cc(=O)[nH]c3ccccc23)CC1", "inhibition, %": 14.7}

P: CCOC(=O)c1cnc2c(cnn2-c2ccccc2)c1N1CCN(c2ccnc3cc(Cl)ccc23)CC1
Q: CCOC(=O)c1cnc2c(cnn2-c2ccccc2)c1N1CCN(S(=O)(=O)c2ccc(NC(C)=O)cc2)CC1
R: CCOC(=O)c1cnc2c(cnn2-c2ccccc2F)c1N1CCN(c2ncccc2C#N)CC1
stdin: rank_up(items): orders items by reported inhibition in ascending numerical order. Could you list the labels in the order requested?
stdout: Q, R, P
(Q: 17.7%, R: 26.1%, P: 39.2%)

1: CCOC(=O)c1cnc2c(cnn2-c2ccccc2)c1N1CCCCC1
2: CCOC(=O)c1cnc2c(cnn2-c2ccccc2)c1N1CCN(c2ncccc2C#N)CC1
stdin: Could you determine which record has the numerically smaller inhibition? Candidates: 1 and 2 Provide the label of your selected option as the answer.
stdout: 2
(2: 33.1%, 1: 47.7%)

1: CCOC(=O)c1cnc2c(cnn2-c2ccccc2)c1Oc1cccc2cccnc12
2: CCOC(=O)c1cnc2c(cnn2-c2ccc(F)c(F)c2)c1N1CCN(c2ncccc2C#N)CC1
stdin: Could you determine which record has the numerically smaller inhibition? Candidates: 1 and 2 Provide the label of your selected option as the answer.
stdout: 2

a: CCOC(=O)c1cnc2c(cnn2-c2ccccc2)c1N1CCOCC1
b: CCOC(=O)c1cnc2c(cnn2-c2ccccc2)c1N1CCN(C)CC1
stdin: Could you determine which record has the numerically smaller inhibition? Candidates: a and b Provide the label of your selected option as the answer.
stdout: a
(a: 30.2%, b: 53%)
